# Protocol description: gradient 5% acetonitrile 3 min, to 50% in 2 min, to 85% in 15 min, held 3 min, 100 µL/min
# Experimental context: column: Zorbax Extend-C18 2.1 x 50 mm; eluents: water / acetonitrile, 0.1% formic acid
Quantity: RP-LC retention time
Note to self: number, then unit, no commentary.

>>> df
                                   molecule  endpoint_result
0  CCc1nnc(-c2cn(CC(=O)NC3CCCCCC3)c3ccccc23)o1            790 s
1  Nc1nc(-c2nn(Cc3ccccc3F)c3ncccc23)ncc1C1CC1            720 s
2  CCCn1c(=O)c(C)nc2cc(-c3noc(-c4ccccc4F)n3)ccc21           1130 s
3  Cn1cnc(S(=O)(=O)N2CCOc3ccc(NC(=O)C4CC4)cc3C2)c1            658 s
4  COc1ccc(-c2noc(Cn3c(=O)n(C(C)C)c(=O)c4ccccc43)n2)cc1OC           1000 s

Summary for this molecule, O=C(Nc1cccc(Cl)c1)c1cn(CC2CCCO2)cc2c(=O)n(-c3ccccc3)nc1-2 (stereo unspecified) : RP-LC retention time is 1100 s

Memo: Cc1nnc(N2CCCC(C(=O)NC(C)c3ccccc3)C2)c2nn(-c3ccc(Cl)cc3)c(C)c12 (stereo unspecified) , reported RP-LC retention time: 795 s

Query Cc1ccc2nc(-c3cccc(S(=O)(=O)N4CC(C)OC(C)C4)c3)cn2c1 (stereo unspecified) yields RP-LC retention time of 640 s
